system: Salmonella typhimurium; experiment: Antibacterial activity against Salmonella typhimurium 1926 measured after 24 hrs by two-fold serial dilution method; assay type: functional, Salmonella enterica subsp. enterica serovar Typhimurium; settings: Salmonella enterica, 1926, 24 h
Reported Endpoint: MIC (µg/mL)

[
  {
    "Compound": "O=C(N/N=C/c1ccc(/C=C/C(=O)c2ccccc2F)cc1)c1ccccc1",
    "Test System": "Salmonella typhimurium",
    "Unit Annotation": "µg/mL",
    "Value Prefix": ">",
    "Endpoint Value": 64
  },
  {
    "Compound": "O=C(N/N=C/c1ccc(/C=C/C(=O)c2ccccc2Cl)cc1)c1ccccc1",
    "Test System": "Salmonella typhimurium",
    "Unit Annotation": "µg/mL",
    "Value Prefix": ">",
    "Endpoint Value": 64
  },
  {
    "Compound": "O=C(N/N=C/c1ccc(/C=C/C(=O)c2ccccc2F)cc1)c1ccncc1",
    "Test System": "Salmonella typhimurium",
    "Unit Annotation": "µg/mL",
    "Value Prefix": ">",
    "Endpoint Value": 64
  },
  {
    "Compound": "COc1ccc(C(=O)/C=C/c2ccc(/C=N/NC(=N)N)cc2)cc1",
    "Test System": "Salmonella typhimurium",
    "Unit Annotation": "µg/mL",
    "Value Prefix": "=",
    "Endpoint Value": 2
  },
  {
    "Compound": "N=C(N)N/N=C/c1ccc(/C=C/C(=O)c2cccc(Br)c2)cc1",
    "Test System": "Salmonella typhimurium",
    "Unit Annotation": "µg/mL",
    "Value Prefix": "=",
    "Endpoint Value": 1
  },
  {
    "Compound": "Cc1ccc(C(=O)/C=C/c2ccc(/C=N/NC(=O)c3ccncc3)cc2)c(C)c1",
    "Test System": "Salmonella typhimurium",
    "Unit Annotation": "µg/mL",
    "Value Prefix": ">",
    "Endpoint Value": 64
  },
  {
    "Compound": "O=C(N/N=C/c1ccc(/C=C/C(=O)c2ccccc2Br)cc1)c1ccncc1",
    "Test System": "Salmonella typhimurium",
    "Unit Annotation": "µg/mL",
    "Value Prefix": ">",
    "Endpoint Value": 64
  },
  {
    "Compound": "O=C(/C=C/c1ccc(/C=N/NC(=O)c2cccc(Cl)c2)cc1)c1ccc(Cl)cc1",
    "Test System": "Salmonella typhimurium",
    "Unit Annotation": "µg/mL",
    "Value Prefix": ">",
    "Endpoint Value": 64
  },
  {
    "Compound": "N=C(N)N/N=C/c1ccc(/C=C/C(=O)c2ccccc2F)cc1",
    "Test System": "Salmonella typhimurium",
    "Unit Annotation": "µg/mL",
    "Value Prefix": "=",
    "Endpoint Value": 4
  },
  {
    "Compound": "O=C(/C=C/c1ccc(/C=N/NC(=O)c2ccncc2)cc1)c1ccc(F)cc1",
    "Test System": "Salmonella typhimurium",
    "Unit Annotation": "µg/mL",
    "Value Prefix": ">",
    "Endpoint Value": 64
  },
  {
    "Compound": "Cc1ccc(C(=O)/C=C/c2ccc(/C=N/NC(=N)N)cc2)c(C)c1",
    "Test System": "Salmonella typhimurium",
    "Unit Annotation": "µg/mL",
    "Value Prefix": "=",
    "Endpoint Value": 8
  },
  {
    "Compound": "Cc1ccc(C(=O)/C=C/c2ccc(/C=N/NC(=N)N)cc2)cc1",
    "Test System": "Salmonella typhimurium",
    "Unit Annotation": "µg/mL",
    "Value Prefix": "=",
    "Endpoint Value": 4
  },
  {
    "Compound": "O=C(N/N=C/c1ccc(/C=C/C(=O)c2ccccc2Br)cc1)c1ccccc1",
    "Test System": "Salmonella typhimurium",
    "Unit Annotation": "µg/mL",
    "Value Prefix": ">",
    "Endpoint Value": 64
  },
  {
    "Compound": "O=C(/C=C/c1ccc(/C=N/NC(=O)c2cccc(Cl)c2)cc1)c1cccc(Cl)c1",
    "Test System": "Salmonella typhimurium",
    "Unit Annotation": "µg/mL",
    "Value Prefix": ">",
    "Endpoint Value": 64
  },
  {
    "Compound": "O=C(/C=C/c1ccc(/C=N/NC(=O)c2ccncc2)cc1)c1cccc(Br)c1",
    "Test System": "Salmonella typhimurium",
    "Unit Annotation": "µg/mL",
    "Value Prefix": ">",
    "Endpoint Value": 64
  },
  {
    "Compound": "N=C(N)N/N=C/c1ccc(/C=C/C(=O)c2ccc(Br)cc2)cc1",
    "Test System": "Salmonella typhimurium",
    "Unit Annotation": "µg/mL",
    "Value Prefix": "=",
    "Endpoint Value": 2
  },
  {
    "Compound": "N=C(N)N/N=C/c1ccc(/C=C/C(=O)c2cccc(Cl)c2)cc1",
    "Test System": "Salmonella typhimurium",
    "Unit Annotation": "µg/mL",
    "Value Prefix": "=",
    "Endpoint Value": 2
  },
  {
    "Compound": "N=C(N)N/N=C/c1ccc(/C=C/C(=O)c2ccccc2Cl)cc1",
    "Test System": "Salmonella typhimurium",
    "Unit Annotation": "µg/mL",
    "Value Prefix": "=",
    "Endpoint Value": 8
  },
  {
    "Compound": "N=C(N)N/N=C/c1ccc(/C=C/C(=O)c2ccc(F)cc2)cc1",
    "Test System": "Salmonella typhimurium",
    "Unit Annotation": "µg/mL",
    "Value Prefix": "=",
    "Endpoint Value": 4
  },
  {
    "Compound": "COc1c(N2C[C@@H]3CCCN[C@@H]3C2)c(F)cc2c(=O)c(C(=O)O)cn(C3CC3)c12 [MOXIFLOXACIN]",
    "Test System": "Salmonella typhimurium",
    "Unit Annotation": "µg/mL",
    "Value Prefix": "=",
    "Endpoint Value": 1
  },
  {
    "Compound": "N=C(N)N/N=C/c1ccc(/C=C/C(=O)c2ccc(Cl)cc2)cc1",
    "Test System": "Salmonella typhimurium",
    "Unit Annotation": "µg/mL",
    "Value Prefix": "=",
    "Endpoint Value": 4
  },
  {
    "Compound": "O=C(N/N=C/c1ccc(/C=C/C(=O)c2ccccc2Cl)cc1)c1cccc(Cl)c1",
    "Test System": "Salmonella typhimurium",
    "Unit Annotation": "µg/mL",
    "Value Prefix": ">",
    "Endpoint Value": 64
  },
  {
    "Compound": "N=C(N)N/N=C/c1ccc(/C=C/C(=O)c2ccc(Cl)cc2Cl)cc1",
    "Test System": "Salmonella typhimurium",
    "Unit Annotation": "µg/mL",
    "Value Prefix": "=",
    "Endpoint Value": 1
  },
  {
    "Compound": "COc1c(N2CCNC(C)C2)c(F)cc2c(=O)c(C(=O)O)cn(C3CC3)c12 (stereo not drawn) [GATIFLOXACIN]",
    "Test System": "Salmonella typhimurium",
    "Unit Annotation": "µg/mL",
    "Value Prefix": "=",
    "Endpoint Value": 2
  },
  {
    "Compound": "N=C(N)N/N=C/c1ccc(/C=C/C(=O)c2ccccc2Br)cc1",
    "Test System": "Salmonella typhimurium",
    "Unit Annotation": "µg/mL",
    "Value Prefix": "=",
    "Endpoint Value": 4
  },
  {
    "Compound": "Cc1ccc(C(=O)/C=C/c2ccc(/C=N/NC(=O)c3ccccc3)cc2)c(C)c1",
    "Test System": "Salmonella typhimurium",
    "Unit Annotation": "µg/mL",
    "Value Prefix": ">",
    "Endpoint Value": 64
  },
  {
    "Compound": "O=C(N/N=C/c1ccc(/C=C/C(=O)c2ccc(Cl)cc2Cl)cc1)c1ccncc1",
    "Test System": "Salmonella typhimurium",
    "Unit Annotation": "µg/mL",
    "Value Prefix": ">",
    "Endpoint Value": 64
  },
  {
    "Compound": "O=C(/C=C/c1ccc(/C=N/NC(=O)c2ccncc2)cc1)c1ccc(Br)cc1",
    "Test System": "Salmonella typhimurium",
    "Unit Annotation": "µg/mL",
    "Value Prefix": ">",
    "Endpoint Value": 64
  }
]
